assayed_target: T1, human CD47 (hCD47) expressed on cells (human, UniProt Q08722 19-323)
T1 construct: Transfected CHO cells or endogenous CD47 of human cells; also called CHO-hCD47; CD47 on Raji cells
measurement_protocol: flow cytometry, hCD47-CHO cells, competition with His-hSIRPα
endpoint: IC50 (µg/mL)
Report the figure in µg/mL without appending any unit label.

Some binders with recorded IC50:
1. Candidate 22 (VL008-AL13-8G5-8K3), mouse IgG (antibody, V domains shown, Recombinant mouse IgG2a or mIgG1 format, by assay; also called antibody 22) VH: QVQLQQPGAELVKPGASVKLSCKASGYTFTTYWMHWVKQRPGQGLEWIGMIHPNSGTTNYNEKFKSKATLTVDKSSSSTYMQLSSLTSEDSAVYYCTRSHYYDGHFSYWGQGTLVTVSA VL: DIVMSQSPSSLAVSAGEKVTMSCKSSQSLLNSRTRKNYLAWYQQKPGQSPKLLIYWASTRESGVPDRFTGSGSGTDFTLTISSVQAEDLAVYYCKQSYNLWTFGGGTRLEIK : 0.482
2. Candidate 15 (VT008-AL6-18G1-18K21), mouse IgG (antibody, V domains shown, Recombinant mouse IgG2a or mIgG1 format, by assay) VH: QVQLQQPGAELVKPGTSVKLSCKASGYTFINYWIHWVKQRPGRGLEWIGRIDPNTVDAKYNEKFKSKATLTVDKPSSIAYMQLSSLTSEDSAVYYCSRGGYTMDYWGQGTSVTVSS VL: DVVMTQTPLSLPVSLGDQASISCRSSQSLVHSNGNTYLHWYLQKPGQSPTLLIYKVSNRFSGVPDRFSGSGSGTDFTLKISRVEAEDLGIYFCFQSTHVPWTFGGGTKLEIK : 0.605
3. Candidate 7 (VT008-AL5-10G7-10K7), mouse IgG (antibody, V domains shown) VH: QVQLQQPGAELVMPGSSVKLSCKTSGYTFTKYWMHWVKRRPGQGLEWIGEINPSDTYTNYNQKFKGKSTLTVDKSSSTAYMQLSSLTSEDSAVYFCARVATMVARGFAYWGQGTLVTVSA VL: DIVMTQSHKFMSTSVGDRVSITCKASQDVSGAVVWYQEKPGQSPNLLIYLATYRYTGVPDRFTGSGSGTDFTLTIRSVQAEDMAVYYCQQYYSIPWTFGGGTKLEIK : 0.657
4. 2A1 (mouse antibody from Inhibrx) (antibody, V domains shown) VH: EVQLQQSGAELVRSGASVKLSCTASGFNIKDYYLHWVKQRPEQGLEWIGWIDPDNGDTEFAPKFQGKATMTADTSSNTAYLQLSSLTSEDTAVYYCNAAYGSSSYPMDYWGQGTSVTV VL: DIKMTQSPSSLYASLGERVTITCKASQDIHRYLSWFQQKPGKSPKILIYRANRLVDGVPSRFSGSGSGQDYSLTISSLEYEDMGIYYCLQYDEFPYTFGGGTKLEMK : 0.739

Quickly give me recorded IC50 for Candidate 26 (VT008-AL6-10G3-10K1), mouse IgG (antibody, V domains shown, Recombinant mouse IgG2a or mIgG1 format, by assay) VH: QVQLQQPGPELVKPGASVKLSCKASGYTFTNYWIHWLNQRPGRGLEWIGRIDPNSGGTKYNEKFKSKAILTVDKSSSTTYMQLSSLTSEDSAVYYCARGGYTMDYWGQGTSVTVSS VL: DVVMPQTPLSLPVSLGDHASISCRSSQSLLHSNGNTYLHWYLQKPGQSPKLLIYKVSYRFSGVPDRISGSGSGTDFTLKISRVEAEDLGVYFCFQSTHVPWTFGGGTKLEIK 0.359

Quickly give me recorded IC50 for Candidate 14 (VT008-AL6-14G1-16K1), mouse IgG (antibody, V domains shown, Recombinant mouse IgG2a or mIgG1 format, by assay) VH: QVQLQQPGAELVKPGASLRVSCKASGYTFTNYWMYWVRQRPGRGLEWIGWIDPNSGGTKYNEKFKSKATLTVDKPSSTAYMQLSSLTSEDSAVYNCARGGYTMDYWGQGTSVTVSS VL: DVVMTQTPLSLPVSLGDQASISCRASQSLVHSNGNTYLHWYLQKPGQSPKLLIYKVSNRFSGVPDRFSGSGSGTDFTLKISRVEAEDLGVYFCSQSTHVPLTFGAGTKLELK 0.737

Taken from patent US20220356245A1.
